- TEST PROTOCOL: Toxicity in po dosed rat
- Assay type: organism-based
- TEST CONDITIONS: in vivo
PARAMETER MEASURED: LD50 (mg/kg)
Reply with just the number (in mg/kg).

Asked: Record request: LD50 value, item C[C@H]1CCC/C=C/[C@@H]2C[C@H](O)C[C@H]2[C@H](O)/C=C/C(=O)O1 [BREFELDIN A]
Given back: 275
